systemName: Serine/threonine-protein kinase N1 (Homo sapiens)
Sequence (Q16512 whole entry): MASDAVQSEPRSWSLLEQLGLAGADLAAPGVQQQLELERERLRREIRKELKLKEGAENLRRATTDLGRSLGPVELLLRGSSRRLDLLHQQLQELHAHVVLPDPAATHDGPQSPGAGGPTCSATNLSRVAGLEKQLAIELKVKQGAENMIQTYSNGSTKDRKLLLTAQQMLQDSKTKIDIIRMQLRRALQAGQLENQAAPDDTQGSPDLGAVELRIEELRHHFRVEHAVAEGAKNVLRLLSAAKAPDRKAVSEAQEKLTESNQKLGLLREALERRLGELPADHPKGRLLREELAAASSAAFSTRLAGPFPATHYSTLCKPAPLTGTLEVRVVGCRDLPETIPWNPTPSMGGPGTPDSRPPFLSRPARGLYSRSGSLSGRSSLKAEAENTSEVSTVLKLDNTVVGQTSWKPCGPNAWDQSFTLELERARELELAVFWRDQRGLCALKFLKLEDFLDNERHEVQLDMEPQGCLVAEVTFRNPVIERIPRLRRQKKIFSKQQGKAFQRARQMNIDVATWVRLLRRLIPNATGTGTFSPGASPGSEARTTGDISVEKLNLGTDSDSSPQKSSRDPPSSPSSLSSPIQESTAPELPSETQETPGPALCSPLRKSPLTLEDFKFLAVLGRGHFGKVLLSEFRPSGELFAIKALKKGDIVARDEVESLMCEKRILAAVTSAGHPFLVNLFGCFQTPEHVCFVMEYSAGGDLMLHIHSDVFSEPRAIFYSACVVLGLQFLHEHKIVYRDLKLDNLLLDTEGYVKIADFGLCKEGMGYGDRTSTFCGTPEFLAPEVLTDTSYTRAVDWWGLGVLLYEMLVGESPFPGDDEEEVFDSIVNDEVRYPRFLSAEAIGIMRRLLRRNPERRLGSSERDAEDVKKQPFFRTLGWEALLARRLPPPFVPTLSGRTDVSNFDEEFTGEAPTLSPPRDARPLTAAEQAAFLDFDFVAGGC
assayMethodText: Inhibition of PKN1 (unknown origin) by TR-FRET-based tracer displacement assay
assayMetric: pIC50
pIC50 is a log-scale quantity: -log10 of the concentration expressed in molar.

Given the molecule O=C1CCCc2[nH]c(-c3ccncc3)cc21 , what is its reported pIC50?
5.89

What does the record list as pIC50 for O=C1NCCc2c1cc(-c1ccncc1)n2Cc1ccccc1 ?
5.52

Sample O=C1NCCc2c1cc(-c1ccncc1)n2CCO — what was its pIC50?
6.36

Param item = O=C1NCCc2[nH]c(-c3ccncc3)cc21 ; retrieve measured pIC50.
6.52

====

The compounds below have reported pKi for Serine/threonine-protein kinase N2 (Homo sapiens, UniProt Q16513).
FYI, pKi means -log10 of a concentration in mol per litre.

Item under review: O=C1CCCc2[nH]c(-c3ccncc3)cc21 . Reported pKi?
7.52

Request the reported pKi associated with CC(C)n1c(-c2ccncc2)cc2c1CCNC2=O
7.15

If you can, please state the reported pKi value of O=C1NCCc2c1cc(-c1ccncc1)n2Cc1ccccc1 .
6.49

Fill in: pKi of O=C1NCCc2[nH]c(-c3cccnc3)cc21 is ___
5.80

Looking for the measured pKi of CCn1c(-c2ccncc2)cc2c1CCN(C)C2=O , can you help?
6.77

====

systemName: Serine/threonine-protein kinase N2 (Homo sapiens, UniProt Q16513)
Sequence (Q16513 whole entry): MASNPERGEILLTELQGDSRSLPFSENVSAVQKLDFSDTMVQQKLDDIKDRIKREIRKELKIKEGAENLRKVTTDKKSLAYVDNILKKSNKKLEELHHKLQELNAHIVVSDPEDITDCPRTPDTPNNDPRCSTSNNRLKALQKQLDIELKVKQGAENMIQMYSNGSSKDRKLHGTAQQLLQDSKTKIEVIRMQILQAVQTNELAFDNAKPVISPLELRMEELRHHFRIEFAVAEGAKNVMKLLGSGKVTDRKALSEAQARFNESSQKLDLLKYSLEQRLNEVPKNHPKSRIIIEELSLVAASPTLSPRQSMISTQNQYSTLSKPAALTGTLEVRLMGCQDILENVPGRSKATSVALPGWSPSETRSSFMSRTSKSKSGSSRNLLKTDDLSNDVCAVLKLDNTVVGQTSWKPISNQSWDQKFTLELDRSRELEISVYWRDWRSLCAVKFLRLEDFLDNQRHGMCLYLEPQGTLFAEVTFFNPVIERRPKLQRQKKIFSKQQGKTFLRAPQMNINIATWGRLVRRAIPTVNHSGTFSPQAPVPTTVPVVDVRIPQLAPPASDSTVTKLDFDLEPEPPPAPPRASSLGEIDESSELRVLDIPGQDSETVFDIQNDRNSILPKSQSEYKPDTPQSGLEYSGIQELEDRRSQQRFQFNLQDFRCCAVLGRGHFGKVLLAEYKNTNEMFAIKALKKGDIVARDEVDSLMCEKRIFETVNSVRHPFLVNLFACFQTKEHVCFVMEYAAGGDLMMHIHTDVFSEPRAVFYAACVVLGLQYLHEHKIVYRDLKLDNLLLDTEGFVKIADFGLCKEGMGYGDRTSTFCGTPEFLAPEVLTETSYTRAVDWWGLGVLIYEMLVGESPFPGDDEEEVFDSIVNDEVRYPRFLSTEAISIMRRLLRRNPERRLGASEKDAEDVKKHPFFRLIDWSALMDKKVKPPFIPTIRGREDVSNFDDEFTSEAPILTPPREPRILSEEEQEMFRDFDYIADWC
assayMethodText: Inhibition of NanoLuc-PKN2 (ser646-cys984)(unknown origin) expressed in HEK293 cells in […] by cell-based NanoBRET target engagement assay
assayMetric: IC50
Remember to follow the number with its unit.

Need IC50, item CCn1c(-c2ccncc2)cc2c1CCNC2=O
1100 nM

====

assayMethodText: Toxicity in human HeLa cells assessed as cell viability at 50 uM incubated for 24 hrs by MTT assay
Type: cell-based
assayConditions: read-out: Activity
assayMetric: viability at 24 h, 50 µM

Please report the recorded viability at 24 h, 50 µM for O=C1NCCc2[nH]c(-c3ccncc3)cc21 .
≥ 70%

Tell me the measured viability at 24 h, 50 µM of CCCn1c(-c2ccncc2)cc2c1CCNC2=O , please.
≥ 70%

Which viability at 24 h, 50 µM is listed for CCn1c(-c2ccncc2)cc2c1CCNC2=O ?
≥ 70%

====

systemName: Serine/threonine-protein kinase N2 (Homo sapiens, UniProt Q16513)
assayMethodText: Inhibition of NanoLuc-PKN2 (ser646-cys984)(unknown origin) expressed in HEK293 cells by cell-based NanoBRET target engagement assay
assayMetric: pIC50
Give only the number. pIC50 is defined as minus log10 of concentration in molar units.

Look up pIC50 for this molecule: CCn1c(-c2ccncc2)cc2c1CCNC2=O
5.68

Requested field: pIC50. Item: O=C1NCCc2c1cc(-c1ccncc1)n2CCO
4.96

Requested read-out: pIC50. Entry: CCCn1c(-c2ccncc2)cc2c1CCNC2=O
5.55

====

Quick note: these are pKi numbers for system: Serine/threonine-protein kinase N1 (Homo sapiens)
Just so you know, pKi here is -log10 of the concentration in molar units; reply with that number alone.

Quick one: pKi of CCn1c(-c2ccncc2)cc2c1CCNC2=O ?
6.97

Fill blank: measured pKi of the compound CC(C)n1c(-c2ccncc2)cc2c1CCNC2=O is ____.
6.04

Sample CCCn1c(-c2ccncc2)cc2c1CCNC2=O — what was its pKi?
7.22

Entry under review: Cn1c(-c2ccncc2)cc2c1CCNC2=O . Reported pKi?
5.66

Source: ChEMBL document CHEMBL5131476
